# studySystem: IRAK4 (Homo sapiens, UniProt Q9NWZ3)
# Construct: Degradation of IRAK4 in OCI-LY10 was quantitatively measured using Meso Scale Discovery technology; endogenous in cells; host or cells: OCI-LY10
# Sequence (Q9NWZ3 1-460): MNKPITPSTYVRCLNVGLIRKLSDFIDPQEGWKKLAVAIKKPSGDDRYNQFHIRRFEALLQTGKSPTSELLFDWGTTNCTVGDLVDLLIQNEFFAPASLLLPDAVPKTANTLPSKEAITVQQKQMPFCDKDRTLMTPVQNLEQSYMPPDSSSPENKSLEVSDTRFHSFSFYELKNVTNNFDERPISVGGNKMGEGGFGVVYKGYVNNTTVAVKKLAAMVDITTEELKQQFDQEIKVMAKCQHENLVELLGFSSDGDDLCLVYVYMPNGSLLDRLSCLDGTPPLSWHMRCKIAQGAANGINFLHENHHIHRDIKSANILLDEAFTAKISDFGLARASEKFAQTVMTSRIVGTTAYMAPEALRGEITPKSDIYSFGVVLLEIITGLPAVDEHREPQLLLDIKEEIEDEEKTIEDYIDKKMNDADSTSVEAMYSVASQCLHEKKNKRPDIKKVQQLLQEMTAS
# procedureSummary: IRAK4 MSD Degradation in OCI-LY10
# Format: cell-based
# runConditions: OCI-LY10 cells, 24 hrs incubation, MSD; read-out: IRAK4 degradation in OCI-LY10 at 24 hrs: DC50
measurementType: DC50

In: What DC50 value was documented for this compound, Cn1c(=O)n(C2CCC(=O)NC2=O)c2cccc(C#CCN3CCN(C[C@H]4CC[C@H](n5cc(NC(=O)c6cnn7ccc(N8C9COCC8C9)nc67)c(C(F)F)n5)CC4)CC3)c21 (stereo partly drawn) [I-338] ?
Out: < 10 nM

In: Note, next up: Cc1cccc(C(=O)Nc2cc3cn([C@H]4CC[C@H](CN5CCN(c6c(F)ccc7c6n(C)c(=O)n7C6CCC(=O)NC6=O)CC5)CC4)nc3cn2)n1 (stereo partly drawn) [I-695]
Out: < 10 nM

In: And what about the compound Cn1c(=O)n(C2CCC(=O)NC2=O)c2cccc(C#CCOC3CCN(CC4CCN(c5nc(C(F)F)c(NC(=O)c6cnn7ccc(N8C[C@H]9C[C@@H]8CO9)nc67)s5)CC4)CC3)c21 (stereo partly drawn) [I-207] ?
Out: > 200 nM

###

# studySystem: IRAK4 (Homo sapiens, UniProt Q9NWZ3)
# Construct: Degradation of IRAK4 in OCI-LY10 was quantitatively measured using Meso Scale Discovery technology; endogenous in cells; host or cells: OCI-LY10
# procedureSummary: IRAK4 MSD Degradation in OCI-LY10
# Assay type: cell-based
# runConditions: OCI-LY10 cells, 24 hrs incubation, MSD; read-out: IRAK4 degradation in OCI-LY10 at 24 hrs: DC50
# DC50 per entry

// worked examples, DC50 included
compound="Cn1c(=O)n(C2CCC(=O)NC2=O)c2cccc(N3CC(O[C@@H]4CCN(C[C@H]5CC[C@H](n6cc(NC(=O)c7cnn8ccc(N9C[C@H]%10C[C@@H]9CO%10)nc78)c(C(F)F)n6)CC5)C[C@@H]4F)C3)c21 (stereo partly drawn)" measurementtype=DC50 result="< 10 nM"
compound="CC(C)c1ccn2ncc(C(=O)Nc3cn([C@H]4CC[C@H](CN5CCN(CC#Cc6cccc7c6n(C)c(=O)n7C6CCC(=O)NC6=O)CC5)CC4)nc3C(F)F)c2n1 (stereo partly drawn)" measurementtype=DC50 result="> 200 nM"
compound="Cn1c(=O)n(C2CCC(=O)NC2=O)c2cccc(C#CCN3CCN(C[C@H]4CC[C@H](n5cc(NC(=O)c6cnn7ccc(N8CCC9(COC9)C8)nc67)c(C(F)F)n5)CC4)CC3)c21 (stereo partly drawn)" measurementtype=DC50 result="> 200 nM"
compound="Cn1c(=O)n(C2CCC(=O)NC2=O)c2cccc(C#CC[C@H]3CN(Cc4ccc(-n5cc(NC(=O)c6cnn7ccc(N8C[C@H]9C[C@@H]8CO9)nc67)c(C(F)F)n5)cc4)CCO3)c21 (stereo partly drawn)" measurementtype=DC50 result="> 200 nM"
compound="Cn1c(=O)n(C2CCC(=O)NC2=O)c2cccc(N3CCC(OC[C@H]4CC[C@H](n5cc(NC(=O)c6cnn7cccnc67)c(C(F)F)n5)CC4)CC3)c21 (stereo partly drawn)" measurementtype=DC50 result="> 200 nM"
compound="Cn1c(=O)n(C2CCC(=O)NC2=O)c2cccc(CN3CCN(C[C@H]4CC[C@H](n5cc(NC(=O)c6cnn7cccnc67)c(C(F)F)n5)CC4)CC3)c21 (stereo partly drawn)" measurementtype=DC50 result="> 200 nM"
compound="Cn1c(=O)n(C2CCC(=O)NC2=O)c2cccc([C@H]3CCN(C[C@H]4CC[C@H](n5cc6cc(NC(=O)c7cccc(C(F)F)n7)c(C(C)(C)O)cc6n5)CC4)C[C@H]3F)c21 (stereo partly drawn)" measurementtype=DC50 result="> 200 nM"
compound="Cn1c(=O)n(C2CCC(=O)NC2=O)c2cccc(C#CCOC3CCN(C[C@H]4CC[C@H](c5nc(C(F)F)c(NC(=O)c6cnn7ccc(N8C[C@H]9C[C@@H]8CO9)nc67)s5)CC4)CC3)c21 (stereo partly drawn)" measurementtype=DC50 result="> 200 nM"

In: Field request: DC50 | item: Cn1c(=O)n(C2CCC(=O)NC2=O)c2cccc([C@H]3CCN(C[C@H]4CC[C@H](n5cc6cc(NC(=O)c7cccc(C#N)n7)ncc6n5)CC4)C[C@@H]3F)c21 (stereo partly drawn)
Out: < 10 nM

In: Cool, now Cc1cccc(C(=O)Nc2cc3cn([C@H]4CC[C@H](CN5CC[C@@H](c6cccc7c6n(C)c(=O)n7C6CCC(=O)NC6=O)[C@H](F)C5)CC4)nc3c(=O)n2C)n1 (stereo partly drawn)
Out: > 200 nM

In: Same question, CN(C[C@H]1CC[C@H](n2cc(NC(=O)c3cnn4ccc(N5CC(F)(F)C5)nc34)c(C(F)F)n2)CC1)C1CCN(c2cccc3c2n(C)c(=O)n3C2CCC(=O)NC2=O)CC1 (stereo partly drawn) this time
Out: < 10 nM

In: Try the compound Cn1c(=O)n(C2CCC(=O)NC2=O)c2cccc(C#CCN3CCN(C[C@H]4CC[C@H](n5cc(NC(=O)c6cnn7ccc(N8C[C@H]9C[C@@H]8CO9)nc67)c(C(F)(F)F)n5)CC4)CC3)c21 (relative stereo)
Out: > 200 nM

In: Follow-up item: O=C1CCN(c2cccc(C#CCN3CCN(C[C@H]4CC[C@@H](n5cc(NC(=O)c6cnn7ccc(N8CC9CC(C8)O9)nc67)c(C(F)F)n5)CC4)CC3)c2)C(=O)N1
Out: > 200 nM

In: Consider next the compound Cn1c(=O)n(C2CCC(=O)NC2=O)c2cccc(CN3CC4(CCN(Cc5ccc(-n6cc(NC(=O)c7cnn8ccc(N9C[C@H]%10C[C@@H]9CO%10)nc78)c(C(F)F)n6)cc5)CC4)C3)c21 (stereo partly drawn) [I-402] in the same way.
Out: > 200 nM

In: # repeat for COc1cc2nn([C@H]3CC[C@H](CN4CCC5(CC4)CCN(c4ccc(N6CCC(=O)NC6=O)cc4)CC5)CC3)cc2cc1NC(=O)c1cncc(C#N)c1
Out: > 200 nM

In: Input COc1cc(NC(=O)c2cccc(C(F)(F)F)n2)cc2cn([C@H]3CC[C@H](CN4CCN(c5c(F)ccc6c5n(C)c(=O)n6C5CCC(=O)NC5=O)CC4)CC3)nc12 (stereo partly drawn)
Out: > 200 nM

In: Please answer likewise for Cn1c(=O)n(C2CCC(=O)NC2=O)c2cccc(N3CCC(O[C@H]4CC[C@H](n5cc6cc(NC(=O)c7cccc(C(F)(F)F)n7)ncc6n5)CC4)CC3)c21 (stereo partly drawn)
Out: > 200 nM

In: // same read-out, input: Cn1c(=O)n(C2CCC(=O)NC2=O)c2cccc(C[C@@H]3CN(Cc4ccc(-n5cc(NC(=O)c6cnn7cccnc67)c(C(F)F)n5)cc4)CCO3)c21 (stereo partly drawn)
Out: > 200 nM

In: Please give the result for COc1ccc2c(c1N1CC(CN3CCN(C[C@H]4CC[C@H](n5cc(NC(=O)c6cnn7ccc(N8C[C@H]9C[C@@H]8CO9)nc67)c(C(F)F)n5)CC4)CC3)C1)n(C)c(=O)n2C1CCC(=O)NC1=O (stereo partly drawn) too.
Out: < 10 nM

In: What do we get for Cn1c(=O)n(C2CCC(=O)NC2=O)c2cccc(C#CCOC3CCN(C[C@H]4CC[C@H](c5ccc(NC(=O)c6cnn7ccc(N8C[C@H]9C[C@@H]8CO9)nc67)c(C(F)F)n5)CC4)CC3)c21 (stereo partly drawn) ?
Out: > 200 nM

In: Same question, Cc1ccc(-c2nn([C@H]3CC[C@H](CN4CCC(OCC#Cc5cccc6c5n(C)c(=O)n6C5CCC(=O)NC5=O)CC4)CC3)cc2NC(=O)c2cncc(C#N)c2)nc1 (stereo partly drawn) this time
Out: > 200 nM
